test system: HIV-1LAI; assay: In vitro antiviral assay, MT-2 cells exposed to HIV-1LAI, MTT assay; type: cell-based; settings: Human immunodeficiency virus 1, MT2, Table 1; MT-2 cells, 100 TCID50s of HIV-1LAI, MTT assay; means of at least two experiments
measured-attribute: IC50
Quote the value and follow it with the unit of measurement.

[
  {
    "molecule": "CC(C)(C)NC(=O)[C@@H]1C[C@@H]2CCCC[C@@H]2CN1C[C@@H](O)[C@H](Cc1ccccc1)NC(=O)[C@H](CC(N)=O)NC(=O)c1ccc2ccccc2n1 [SQV, saquinavir, reference compound]",
    "IC50": "15 nM"
  },
  {
    "molecule": "CC(C)CN(C[C@@H](O)[C@H](Cc1ccccc1)NC(=O)O[C@@H]1C[C@@H]2[C@@H](O)CO[C@@H]2C1)S(=O)(=O)c1ccc(N)cc1",
    "IC50": "36 nM"
  },
  {
    "molecule": "COc1ccc(S(=O)(=O)N(CC(C)C)C[C@@H](O)[C@H](Cc2ccccc2)NC(=O)O[C@@H]2C[C@@H]3[C@H](O)CO[C@@H]3C2)cc1",
    "IC50": "5 nM"
  },
  {
    "molecule": "CC(C)CN(C[C@@H](O)[C@H](Cc1ccccc1)NC(=O)O[C@@H]1C[C@@H]2[C@H](O)CO[C@@H]2C1)S(=O)(=O)c1ccc(CO)cc1",
    "IC50": "19 nM"
  }
]

State, in one line, measured IC50 of CC(C)CN(C[C@@H](O)[C@H](Cc1ccccc1)NC(=O)O[C@@H]1C[C@@H]2[C@H](O)CO[C@@H]2C1)S(=O)(=O)c1ccc(N)cc1 [drawing 10]
25 nM

====

target: HIV-1 protease (Human immunodeficiency virus type 1 group M subtype B); construct: The HIV aspartic protease plays a central role in the life cycle of the virus; It cleaves the virally encoded polyprotein; assay: HIV-1 protease enzyme inhibitory assay (protocol of Toth and Marshall); format: biochemical; details: Table 2; read-out: Ki
measured-attribute: log10 of Ki (log10 of the value in nM)
// do not treat as linear: log10 of Ki, unit nM

Here are 2 compounds together with their reported answers.
[
  {
    "compound": "COc1ccc(S(=O)(=O)N(CC(C)C)C[C@@H](O)[C@H](Cc2ccccc2)NC(=O)O[C@@H]2C[C@@H]3[C@@H](NS(C)(=O)=O)CO[C@@H]3C2)cc1 [Inhibitor 19j]",
    "target-under-test": "HIV-1 protease (Human immunodeficiency virus type 1 group M subtype B)",
    "log10 of Ki": -0.74
  },
  {
    "compound": "COc1ccc(S(=O)(=O)N(CC(C)C)C[C@@H](O)[C@H](Cc2ccccc2)NC(=O)O[C@@H]2C[C@H]3[C@@H](C2)OC[C@H]3OC(=O)N(C)C)cc1",
    "target-under-test": "HIV-1 protease (Human immunodeficiency virus type 1 group M subtype B)",
    "log10 of Ki": -1.70
  }
]

Field: log10 of Ki. Fill in for each record below.
1. COC(=O)N[C@H]1CO[C@@H]2C[C@H](OC(=O)N[C@@H](Cc3ccccc3)[C@H](O)CN(CC(C)C)S(=O)(=O)c3ccc(OC)cc3)C[C@H]12 [drawing 24]
2. CON[C@@H]1CO[C@@H]2C[C@H](OC(=O)N[C@@H](Cc3ccccc3)[C@H](O)CN(CC(C)C)S(=O)(=O)c3ccc(OC)cc3)C[C@H]12
3. COc1ccc(S(=O)(=O)N(CC(C)C)C[C@@H](O)[C@H](Cc2ccccc2)NC(=O)O[C@@H]2C[C@@H]3[C@H](N(C)C)CO[C@@H]3C2)cc1
4. COc1ccc(S(=O)(=O)N(CC(C)C)C[C@@H](O)[C@H](Cc2ccccc2)NC(=O)O[C@@H]2C[C@@H]3[C@@H](NC(C)=O)CO[C@@H]3C2)cc1 [Inhibitor 19h]

[-2.40, -1.06, 1.10, -2.12]
